Test system: A549 NSCLC
Test: NCI tumour cell line growth inhibition, 48 h
value-kind: TGI

Guide cases for TGI, answers given:
Lab note: compound Nc1nc(Cl)cc(N=Nc2ccccc2)n1 tested on A549 NSCLC; recorded TGI was > 100 µM

Readout TGI for COC(=O)C[CH](C(=O)OC)[Ge]([CH3])([CH3])[S]c1ccccc1 (stereo not given) , test system A549 NSCLC, was > 100 µM

Field TGI (system: A549 NSCLC) for entry Cl.[Pt].[c-]1ccccc1-c1ccccn1.c1ccc(P(c2ccccc2)C([PH+](c2ccccc2)c2ccccc2)[PH+](c2ccccc2)c2ccccc2)cc1 = 15.1 µM

Case CN=C(Nn1cnnc1)OC , A549 NSCLC, TGI recorded as > 100 µM

Simply: Cc1csc2c1C(=O)c1ccsc1C2=O , A549 NSCLC, TGI = 3.55 µM

Next:
Known value: A549 NSCLC TGI of the compound S=c1nc(-c2nc(=S)[nH]c3c2CCCCCCCCCC3)c2c([nH]1)CCCCCCCCCC2 equals > 100 µM

GET /values?item= NC(Cc1cc(I)c(O)c(I)c1)C(=O)O (stereo not given) &system= A549 NSCLC returns TGI: > 500 µM

Entry CCSc1oc(-c2ccccc2)nc1[P+](c1ccccc1)(c1ccccc1)c1ccccc1 under A549 NSCLC had TGI of 4.71 µM

Bench note, A549 NSCLC: entry O=C(CC(=O)N1N=C(c2ccccc2)C(N=Nc2ccc(C(=O)O)cc2)C1=O)Nc1ccc(F)cc1 (stereo not given) , its TGI = > 100 µM

# lookup: COc1ccc(/C=C2\Cc3ccccc3C2=O)cc1OC on A549 NSCLC, TGI = > 100 µM

---

Test system: SF-295 CNS
Assay: NCI tumour cell line growth inhibition, 48 h
Reported TGI by item:

Entry under test: Cl.[Pt].[c-]1ccccc1-c1ccccn1.c1ccc(P(c2ccccc2)C([PH+](c2ccccc2)c2ccccc2)[PH+](c2ccccc2)c2ccccc2)cc1 . Its TGI was 12.4 µM

According to the records, this compound O=C1C2c3[nH]c4ccccc4c3[C@@H]3CCCCCCCCCCC3C2C(=O)N1c1ccccc1 (stereo partly drawn) displays TGI of 42.1 µM

Query Cc1c2c3cc(O)ccc3nc-2n(C)c2ccccc12 yields TGI of 13 µM

compound CN=C(Nn1cnnc1)OC , TGI observed: > 100 µM

Item: C=CCC(CNC(=O)OCc1ccccc1)O[Si](C)(C)C(C)(C)C (stereo not drawn) | TGI: > 100 µM

TGI in this record for O=P(Oc1ccc(Cl)cc1)(Oc1ccc(Cl)cc1)N1CC1 : > 10 µM

For O=C(NCc1cccnc1)/C(=C\c1ccc(Br)cc1)S(=O)(=O)c1ccccc1 the compound record lists TGI as 3.24 µM

The reported value for Cn1c(=O)c2c(-c3ccccc3)onc2n(C)c1=O in terms of TGI is > 100 µM

Lab note: C(=N\Nc1nnc2c(n1)[nH]c1ccccc12)/c1cccnc1 gave TGI of > 100 µM

Sure, the documented TGI for CCOC(=O)c1sc(-c2ccc(OS(=O)(=O)c3cccs3)c(C=O)c2)nc1C is 3.36 µM

Sure, the documented TGI for CCC1C(C)c2c([nH]c3ccccc23)C2C(=O)N(c3ccccc3)C(=O)C21 (stereo not drawn) is 32.3 µM

Briefly, TGI measured for COC(=O)C(/C(=N/NC(=O)c1ccncc1)C(=O)Nc1ccccc1OC)c1nc2ccc(Cl)cc2[nH]c1=O (stereo not drawn) : > 100 µM

Quick note, TGI for Cc1cc(C)cc(-n2c3nc(=O)n(C)c(=O)c-3nc3ccccc32)c1 landed at > 100 µM

O=C1NC(=O)/C(=C/C=C/c2ccccc2)S1 yielded TGI of 6.35 µM

For record CCOC1OCCCC1Br (stereo not drawn) the listed TGI is > 100 µM

Given item CC#C[C@@]1(O)CCCC[C@@H]1O , the value recorded as its TGI is > 100 µM

Note to self: TGI recorded for O=c1[nH]cc(CS(=O)(=O)Cc2c[nH]c(=O)[nH]c2=O)c(=O)[nH]1 was > 100 µM

// O=C1c2ccccc2C(=O)c2c(NCCCNCCO)ccc(NCCCNCCO)c21 : TGI value = 31.9 µM

---

The following molecules are listed with their measured TGI values.
System: UACC-257 melanoma
Test: NCI tumour cell line growth inhibition, 48 h

Please review the entries below; each comes with its answer.
Form: molecule = CC(=O)O[C@H]1C#C/C=C\C#CC[C@@H]2C(=O)N(C(=O)OC(C)(C)C)[C@@H]12 ; TGI = > 100 µM

The molecule identified as C#CCNC(Cc1cnc[nH]1)C(=O)O (stereo unspecified) registered its TGI at > 100 µM

Notebook: C=C1CCC2C3(C)COC(c4ccc(NC(C)=O)cc4)OC3CCC2(C)C1C/C=C1/C(=O)OCC1O (stereo unspecified) , TGI read as > 100 µM

TGI reported for this molecule S=C(N/N=C\C=N/NC(=S)N1CCCCCC1)N1CCCCCC1 : > 100 µM

Memo: O=C(NCc1cccnc1)/C(=C\c1ccc(Br)cc1)S(=O)(=O)c1ccccc1 , reported TGI: 2.68 µM

Alright, here's another molecule for you.
Kindly note the recorded TGI for CC1(C)CCC[C@]23C(=O)O[C@](O)(C(=O)C4=C[C@@](C)(/C=C/CCCc5ccc6ccc7cccc8ccc5c6c78)CC[C@@]42O)[C@@H]13 , which is 0.586 µM

---

System: HL-60(TB) leukemia
Assay: NCI tumour cell line growth inhibition, 48 h
Short version: TGI at least 7 µM is 1, less is -1.

Is reported TGI greater than or equal to 7 µM here: CC(=O)N(CN1C(=O)CCC1C(=O)O)c1ccccc1 (stereo not given)
1

Decide: is the reported value of TGI for Cc1ccc2c(c1)C(=O)c1c-2n(CCCN)c(=O)c2cc([N+](=O)[O-])ccc12 equal to or greater than 7 µM?
-1

Check this compound for TGI at or above 7 µM: Nc1[nH]c(=O)ncc1F
1

***
Threshold query (TGI >= 7 µM) on COc1ccc(-c2oc(=O)ccc2C#Cc2cc(OC)c(OC)c(OC)c2)cc1O
1

Test whether the compound CC1=C(C(=O)OCCc2ccc([N+](=O)[O-])cc2)C(c2ccccc2[N+](=O)[O-])C(C(=O)OC(C)C)=C(C)N1 (stereo not given) records TGI of 7 µM or higher.
1

Confirm if TGI reported for the compound CCc1nnc(-n2c(C)nc3cc(Cl)ccc3c2=O)s1 is 7 µM or above.
1

Tell me whether TGI is at least 7 µM here: Cc1nnc2cc(C(=O)O)c3ccccc3n2c1=O
1

Please tell me: is the compound O=[N+]([O-])c1cccc([N+](=O)[O-])c1S(=O)(=O)c1ccccc1 at or over 7 µM in terms of TGI?
1

Determine whether this compound has TGI no lower than 7 µM: Nc1ccc(-c2nc3ccc4[nH]ncc4c3c3c2CCCC3)cc1F
-1

Quick check, TGI >= 7 µM? Cc1ccc(C(=O)N(C(C)C)C(C)C)cc1N=NN(C)C
1

---

Tested on: SK-OV-3 ovarian
Assay: NCI tumour cell line growth inhibition, 48 h
value-kind: TGI

Noted for Cc1ccc2nc3c(C)c(Cl)c(=O)cc-3sc2c1 : its TGI reads > 100 µM

Measured TGI, COc1ccc(-c2ccc(/C=C/C(=O)NO)cc2)cc1 : 3.21 µM

Reported TGI of O=P(Oc1ccc(Cl)cc1)(Oc1ccc(Cl)cc1)N1CC1 : > 10 µM

Item: CCN(CC)CCN1C(=O)c2c(c(C)c3c(oc4cc(O)ccc43)c2C)C1=O | TGI: 3.36 µM

// sample Cc1ccc(S(=O)(=O)N(/N=C(\N)Oc2ccc(Cl)cc2)C(=N)Oc2ccc(Cl)cc2)cc1 , its TGI was > 100 µM

For CC(C)[C@@H]1C=C(c2ccccc2)c2ccccc2C1C(C#N)(C#N)C(C)C (stereo not given in full) the compound record lists TGI as > 100 µM

Record C=C(CN1CCN(c2ccccc2OC)CC1)c1ccc(C(=O)Nc2ccccc2N)cc1 , field TGI: 18.1 µM

Per the record, CC[C@@]1(O)C(=O)NCc2c1cc1n(c2=O)Cc2cc3ccccc3nc2-1 has TGI of > 100 µM

Lab book: TGI of COc1ccc(C(O)c2ccc3c(c2)OCO3)cc1 (stereo not given) noted as > 100 µM

Record summary for C#CCNC(Cc1cnc[nH]1)C(=O)O (stereo not given) : reported TGI = > 100 µM

Continuing:
response.value for CC(=O)O[C@H]1C#C/C=C\C#CC[C@@H]2C(=O)N(C(=O)OC(C)(C)C)[C@@H]12 (field: TGI) = > 100 µM

Recorded TGI (compound CC(C)CCC[C@@H](C)[C@H]1CC[C@H]2[C@@H]3CC=C4C[C@@H](OC(=O)c5cccc6c(=O)c7ccccc7[nH]c56)CC[C@]4(C)[C@H]3CC[C@]12C ): > 75 µM

Value of TGI reported for the compound CCOC(=O)c1sc(-c2ccc(OS(=O)(=O)c3cccs3)c(C=O)c2)nc1C is 7.79 µM

Recorded TGI (compound Oc1ccc2oc3ncc(Cl)c(-c4ccccc4)c3c2c1 ): > 100 µM

Noted for O=C1/C(=C/c2ccccc2)CCc2ccc(Cl)nc21 : its TGI reads 73 µM

Sample CC1(C)CCC[C@]23C(=O)O[C@](O)(C(=O)C4=C[C@@](C)(/C=C/CCCc5ccc6ccc7cccc8ccc5c6c78)CC[C@@]42O)[C@@H]13 ; TGI observed: 0.324 µM

Given item CCCCCCCCCCCC(=O)OCC1OC(n2cc(F)c(=O)[nH]c2=O)C(NC(=O)OCc2ccccc2)C(O)C1O (stereo not given) , the value recorded as its TGI is > 100 µM

Per the records, this compound ( Clc1nc(-[n+]2ccc(-c3ccncc3)cc2)nc(Nc2ccccc2)c1Cl ) has TGI equal to > 100 µM

Per the records, this compound ( COc1ccc2cccc(C(=O)c3ccc(C)c4c3CCC4)c2c1 ) has TGI equal to > 100 µM

Record COc1ccc2c(c1)CCC1C2CC[C@@]2(C)C1CC[C@@]2(O)CNC(=O)/C=C/c1ccc(O)c(OC)c1 (stereo not given in full) . Reported TGI: > 100 µM

These data points were gathered from PubChem BioAssay (NCI).
